Data credit: patent US20220259593A1

Tested on: K562 CRISPRi cells
assay_remarks: Constant region variant library pooled growth screen, K562
Format: cell-based, human
stated_conditions: sgRNA constant region variants; activity relative to the original, un-modified constant region cr995
Excerpt: We calculated relative activities for each targeting sequence:constant region pair by normalizing its phenotype to that of the targeting sequence paired with the unmodified constant region, identifying 409 constant region variants that on average conferred intermediate activity (0.1-0.9, FIG. 5B). Ten variants selected for individual evaluation also mediated intermediate levels of mRNA knockdown (FIG. 6B). […]
With a cut-off of 0.8, any Mean relative activity strictly below it is called class 1; any Mean relative activity meeting it or above is called class 0.

INSERT INTO measurements (molecule, discrete_label) VALUES
  ('cr327 (nucleic acid, listed as DNA, chemistry not fully specified) guide: GTTTAAGAGCTAAGCTGGAAACAGCATAGCAAGTTTAAATAAGGCTAGTCCGTTATCAACTTGCAAAAGTGGCACCGAGTCGGTGCT', 'class 0'),
  ('cr745 (nucleic acid, listed as DNA, chemistry not fully specified) guide: GTTTAAGAGCTAAGCTGGAAACAGCATAGCAAGTTTAAATAAAGCTAGTCCGTTATCAACTTGAAAAAGTGGCACCGAGTCGGTGCT', 'class 1'),
  ('cr779 (nucleic acid, listed as DNA, chemistry not fully specified) guide: GTTTAAGAGCTAAGCTGGAAACAGCATAGCAAGTTTAAATAAGGCTAGTCCGTTATCAAATTGAAAAATTGGTAACGAGTCGTTACT', 'class 1'),
  ('cr095 (nucleic acid, listed as DNA, chemistry not fully specified) guide: GTATAAGTGCTAAGCTGGAAACAGCATAGCAAGTTTAAATAAGGCTAGTCCGTTATCAACTTGAAAAAGTGGCACCGAGTCGGTGCT', 'class 1'),
  ('cr643 (nucleic acid, listed as DNA, chemistry not fully specified) guide: GTTTAAGAGCTAAGCTGGAAACAGCATAGCAAGTTTAAATAAGACTAGTTCGTTATCAGCTTGAAAAAGCGGCATCGAGTCGATGCT', 'class 0'),
  ('cr927 (nucleic acid, listed as DNA, chemistry not fully specified) guide: GTTTAAGAGCTAAGCTGGAAACAGCATAGCAAGTTTAAATAAGGCTAGTCCGTTATCAACTTGAAAAAGTGGCGCCCAGTGGGCGCT', 'class 1'),
  ('cr550 (nucleic acid, listed as DNA, chemistry not fully specified) guide: GTTTAAGAGCTAAGCTGGAAACAGCATAGCAAGTTTAAATAAGGCTAGTCCGTTATCAACTTGAAAAAGTGGCACAAAGTTTGTGCT', 'class 1');
